All values here come from PubChem BioAssay (NCI).

- Test system: NCI-H23 lung
- Protocol summary: NCI-60 one-dose screen, 48 h (100 = growth as untreated, 0 = no growth, -100 = all killed)
- Test context: 10 µM unless noted
Compounds without any hit were thinned out: in the full panel of roughly 83,000, 20% have a hit.
Assay endpoint: growth (%)
Respond with the bare value in %.

Worked set:
| Molecule | Value measured |
| --- | --- |
| N#Cc1cccc(/C(N)=N/C(N)=N/c2nc3ccccc3s2)c1 | 27.7 |
| C=C(C=O)[C@@H]1CC[C@]2(COC(C)=O)CC[C@]3(C)C(CC[C@@H]4[C@@]5(C)CC[C@H](OC(C)=O)C(C)(C)[C@@H]5CC[C@]43C)[C@@H]12 (some centres undefined) | -22.4 |
| CC(=O)c1cc(C(=O)c2ccc(Br)cc2)n2cc(C)cc(C)c12 | 102 |
| CCOc1ccc(C(=O)Nc2ncc(Cc3ccc(F)cc3)s2)cc1 | 28.4 |
| C=CCn1c(SCC(=O)Nc2ccc(C(=O)/C=C/c3ccc(Cl)cc3)cc2)nnc1-c1c[nH]c2ccccc12 | 77.8 |

Report growth for "O=S(=O)(NCCCNc1nccc(-n2cnc3ccccc32)n1)c1ccc(C(F)(F)F)cc1" please.
91.3

Report growth for CCc1cccc2c3c(sc12)C(c1ccc(Cl)cc1)C(C#N)=C(/N=C/c1ccc(Cl)cc1)O3 (centres undefined) please.
17.1

Report growth for "Cc1cc2nc(C(Cl)Cl)nc(-c3cccs3)n2n1" please.
10.5

Report growth for "C=C1CC[C@@H]2[C@](C)(CO)[C@H](O)CC[C@@]2(C)[C@@H]1C/C(O)=C1\CCOC1=O" please.
104
